Listed here are molecules together with their documented BI.
system: 266 human PDZ domains (PDZome); experiment: Holdup assay (chromatographic retention, PDZome-binding profile, BI); parameters: key: binding intensity: 0.00 = no binding, 1.00 = maximal binding; details: PDZ domain NHERF3-2
*1 amine or outer side, *2 acyl side, *3 side chain or, on linkers, in order; H or OH if unused. Where a SMILES comes first, the peptide text is derived from it. The star is where a group is joined. X1 = O=C(CCCC[C@@H]1SC[C@@H]2NC(=O)N[C@@H]21)NCCCOCCOCCOCCCN*; Suc = O=C(CCC(=O)[*:2])[*:1]
No unit in the answer, please; the number alone is enough.

Recorded BI, per entry:
CC[C@H](C)[C@H](NC(=O)[C@H](CCC(N)=O)NC(=O)[C@@H](NC(=O)[C@H](Cc1c[nH]cn1)NC(=O)[C@H](CCC(N)=O)NC(=O)[C@H](CC(=O)O)NC(=O)[C@H](CCC(=O)O)NC(=O)[C@H](CC(=O)O)NC(=O)CCC(=O)NCCCOCCOCCOCCCNC(=O)CCCC[C@@H]1SC[C@@H]2NC(=O)N[C@@H]21)[C@@H](C)O)C(=O)N[C@H](C(=O)N[C@@H](CCCCN)C(=O)N[C@H](C(=O)O)C(C)C)[C@@H](C)O [PTEN_11] :: 0.063
CC[C@H](C)[C@H](NC(=O)[C@H](CCC(N)=O)NC(=O)[C@@H](NC(=O)[C@H](Cc1c[nH]cn1)NC(=O)[C@H](CCC(N)=O)NC(=O)[C@H](CC(=O)O)NC(=O)[C@H](CCC(=O)O)NC(=O)[C@H](CC(=O)O)NC(=O)[C@H](Cc1ccccc1)NC(=O)[C@@H]1CCCN1C(=O)CCC(=O)NCCCOCCOCCOCCCNC(=O)CCCC[C@@H]1SC[C@@H]2NC(=O)N[C@@H]21)[C@@H](C)O)C(=O)N[C@H](C(=O)N[C@@H](CCCCN)C(=O)N[C@H](C(=O)O)C(C)C)[C@@H](C)O [PTEN_13] ({X1-Suc}-PFDEDQHTQITKV-OH) :: 0.06

Next molecule, BI to be filled in.
// query Enter reported BI observed with 266 human PDZ domains (PDZome) for CC[C@H](C)[C@H](NC(=O)[C@H](CCC(N)=O)NC(=O)[C@@H](NC(=O)[C@H](Cc1c[nH]cn1)NC(=O)[C@H](CCC(N)=O)NC(=O)[C@H](CC(=O)O)NC(=O)[C@H](CCC(=O)O)NC(=O)[C@H](CC(=O)O)NC(=O)CCC(=O)NCCCOCCOCCOCCCNC(=O)CCCC[C@@H]1SC[C@@H]2NC(=O)N[C@@H]21)[C@@H](C)O)C(=O)N[C@H](C(=O)N[C@@H](CCCCNC(C)=O)C(=O)N[C@H](C(=O)O)C(C)C)[C@@H](C)O [PTEN_Ac]
// result 0.105
